- Test target: human Nav1.8 (Homo sapiens (Human), UniProt Q9Y5Y9)
- Sequence (Q9Y5Y9 whole entry): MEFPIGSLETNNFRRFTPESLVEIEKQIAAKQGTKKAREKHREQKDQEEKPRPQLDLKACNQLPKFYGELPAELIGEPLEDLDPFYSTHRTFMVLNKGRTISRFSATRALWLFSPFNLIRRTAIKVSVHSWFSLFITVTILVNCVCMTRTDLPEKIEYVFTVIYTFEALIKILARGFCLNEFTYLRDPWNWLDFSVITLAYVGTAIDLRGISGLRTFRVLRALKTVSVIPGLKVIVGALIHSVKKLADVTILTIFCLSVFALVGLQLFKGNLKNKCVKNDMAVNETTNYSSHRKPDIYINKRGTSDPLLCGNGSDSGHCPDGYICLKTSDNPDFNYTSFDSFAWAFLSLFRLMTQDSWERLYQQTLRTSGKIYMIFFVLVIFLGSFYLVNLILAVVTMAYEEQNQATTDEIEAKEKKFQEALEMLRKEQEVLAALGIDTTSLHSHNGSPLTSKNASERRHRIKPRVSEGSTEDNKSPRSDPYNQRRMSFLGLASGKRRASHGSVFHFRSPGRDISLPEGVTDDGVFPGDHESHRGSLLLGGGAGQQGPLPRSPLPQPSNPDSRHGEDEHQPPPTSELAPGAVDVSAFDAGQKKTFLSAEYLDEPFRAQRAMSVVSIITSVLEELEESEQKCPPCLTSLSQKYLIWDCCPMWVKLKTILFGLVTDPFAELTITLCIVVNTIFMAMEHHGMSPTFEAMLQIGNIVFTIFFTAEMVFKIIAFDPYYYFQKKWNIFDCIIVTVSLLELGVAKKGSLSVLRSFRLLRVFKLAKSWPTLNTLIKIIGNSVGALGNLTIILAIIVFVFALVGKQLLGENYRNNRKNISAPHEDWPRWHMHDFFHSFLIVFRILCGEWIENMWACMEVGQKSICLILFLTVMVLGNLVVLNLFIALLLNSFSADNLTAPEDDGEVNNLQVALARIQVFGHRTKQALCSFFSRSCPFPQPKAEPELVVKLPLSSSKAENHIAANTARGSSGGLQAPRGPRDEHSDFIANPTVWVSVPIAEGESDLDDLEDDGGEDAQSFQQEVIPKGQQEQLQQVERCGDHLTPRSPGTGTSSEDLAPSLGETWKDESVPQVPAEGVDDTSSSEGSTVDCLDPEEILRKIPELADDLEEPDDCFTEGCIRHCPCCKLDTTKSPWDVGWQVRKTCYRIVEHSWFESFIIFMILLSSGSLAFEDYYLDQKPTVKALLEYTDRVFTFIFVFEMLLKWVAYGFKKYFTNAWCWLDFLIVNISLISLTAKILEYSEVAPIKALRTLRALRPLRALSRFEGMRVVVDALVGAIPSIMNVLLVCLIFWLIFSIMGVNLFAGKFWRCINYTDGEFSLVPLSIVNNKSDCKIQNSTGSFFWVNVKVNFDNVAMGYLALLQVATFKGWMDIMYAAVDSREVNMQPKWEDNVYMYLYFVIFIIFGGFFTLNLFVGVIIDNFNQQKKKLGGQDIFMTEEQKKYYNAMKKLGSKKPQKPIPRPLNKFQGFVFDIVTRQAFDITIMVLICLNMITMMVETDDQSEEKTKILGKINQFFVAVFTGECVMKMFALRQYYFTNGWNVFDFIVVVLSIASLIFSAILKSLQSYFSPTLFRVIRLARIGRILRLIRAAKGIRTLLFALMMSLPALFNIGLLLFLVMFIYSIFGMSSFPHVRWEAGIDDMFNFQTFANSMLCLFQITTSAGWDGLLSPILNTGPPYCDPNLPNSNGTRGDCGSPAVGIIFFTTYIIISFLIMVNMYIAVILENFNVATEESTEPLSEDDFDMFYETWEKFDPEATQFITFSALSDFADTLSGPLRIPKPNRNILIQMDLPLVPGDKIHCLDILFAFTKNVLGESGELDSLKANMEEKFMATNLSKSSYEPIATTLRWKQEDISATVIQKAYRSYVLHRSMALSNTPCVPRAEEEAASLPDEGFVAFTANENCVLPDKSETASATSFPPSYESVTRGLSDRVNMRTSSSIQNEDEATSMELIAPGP
- Measurement description: Nav1.8 Qube automated patch-clamp assay
- Type: cell-based
- Measurement setup: human Nav1.8 stably expressed in HEK 293 cells, whole-cell voltage clamp, room temperature; read-out: IC50 (nM) in the Nav 1.8 Qube Assay
- Protocol: Qube® Assay Experimental Procedure Compounds were tested on human Nav1.8 and Nav1.5 channels stably expressed in human embryo kidney (HEK) 293 cells. […] For all Qube® experiments offline analysis was used to determine percent inhibition as a function of drug concentration. IC50 values were determined by fitting to the Hill equation.
Reported metric: IC50 (nM)
Numbers only; they are read as nM.

Previously resolved entries follow.
* Cc1nc(N2CCC(F)(F)CC2)c(C(=O)Nc2ccnc(S(N)(=O)=O)c2)cc1C1CCC1 [Example 15] | 6.5
* O=C(Nc1cnn(S(=O)(=O)C2CC2)c1)c1cc(C(F)(F)F)cnc1N1CCCC(F)(F)CC1 [Example 36] | 147
* Cc1nc(N2CCC(F)(F)CC2)c(C(=O)Nc2ccnc(S(N)(=O)=O)c2)cc1C#CC1CC1 [Example 16] | 12
* NS(=O)(=O)c1cc(NC(=O)c2cc(CC3CC3)cnc2N2CCCC(F)(F)CC2)ccn1 [Example 46] | 1

Endpoint output: IC50 of C[C@@H]1CN(c2nc(C3CCC3)ccc2C(=O)Nc2ccnc(S(N)(=O)=O)c2)C[C@@H](C(F)(F)F)O1 (single isomer, unassigned) [Example 167] . Value? 52

Entry NS(=O)(=O)c1cc(NC(=O)c2ccc(C(F)(F)F)nc2N2CCCC(F)(F)CC2)ccn1 [Example 132] : reported IC50 = ? 5.3

GET /values?readout=IC50&item= Cc1nc(N2C[C@@H](C)C(F)(F)[C@@H](C)C2)c(C(=O)Nc2ccnc(S(N)(=O)=O)c2)cc1Cl [Example 53] 0.8

* * *

- Test target: human Nav1.8 (Homo sapiens (Human))
- Measurement description: Nav1.8 Qube automated patch-clamp assay
- Assay type: cell-based
- Measurement setup: human Nav1.8 stably expressed in HEK 293 cells, whole-cell voltage clamp, room temperature; read-out: IC50 (nM) in the Nav 1.8 Qube Assay
We begin with a simple list: items and their reported IC50.
Quick note: unit goes after the number.

Answered cases to consult:
- NS(=O)(=O)c1cc(NC(=O)c2cc(C(F)(F)F)cnc2N2CCCC(F)(F)CC2)ccn1: 4.1 nM
- CC[C@@H]1CN(c2ncc(C(F)(F)F)cc2C(=O)Nc2ccnc(S(N)(=O)=O)c2)C[C@@H](C(F)(F)F)O1 (single isomer, unassigned): 12 nM
- NS(=O)(=O)c1cc(NC(=O)c2cc(OC(F)(F)F)cnc2N2CCCC(F)(F)CC2)ccn1: 2.8 nM
- C[C@H]1CN(c2nc(C3CCC3)ccc2C(=O)Nc2ccnc(S(N)(=O)=O)c2)C[C@H](C(F)(F)F)O1 (single isomer, unassigned): 17 nM
- Cc1ccc(C(=O)Nc2ccnc(S(N)(=O)=O)c2)c(N2CCCC(F)(F)CC2)n1: 3.1 nM
- Cc1nc(N2CCCC(F)(F)CC2)c(C(=O)Nc2ccnc(S(N)(=O)=O)c2)cc1C(F)(F)F: 0.5 nM
- C[C@@H]1CN(c2nc(C3CCC3)c(Cl)cc2C(=O)Nc2ccnc(S(N)(=O)=O)c2)C[C@@H](C(F)(F)F)O1 (single isomer, unassigned): 9.2 nM
- NS(=O)(=O)c1cc(NC(=O)c2ccc(Cl)nc2N2CCCC(F)(F)CC2)ccn1: 5.8 nM
- Cc1cc(C(=O)Nc2ccnc(S(N)(=O)=O)c2)c(N2CCCC(F)(F)CC2)nc1C: 1.6 nM
- C[C@@H]1CN(c2ncc(C(F)(F)F)cc2C(=O)Nc2ccnc(C(N)=O)c2)C[C@H](C)C1(F)F: 58 nM

Okay, now this compound:
// IC50 lookup, key: `NS(=O)(=O)c1cc(NC(=O)c2ccc(CC3CC3)nc2N2CCCC(F)(F)CC2)ccn1` 0.9 nM
